The measurements presented in this section are drawn from PubChem BioAssay (NCI).

Test system: CCRF-CEM leukemia
test-method-notes: NCI-60 one-dose screen, 48 h
assay-context: 10 µM unless noted
About 83,000 compounds went through this panel and 20% of them were active in at least one assay; those are over-represented in the sample as a whole. Calls of active or inactive are those of the source. The calls were made as follows: active = growth percent below 10; inactive = the rest.
Classes used: t (active), f (inactive)

compound	system-tested	label-value
Cl/C(=N\Nc1ccccc1)c1ccccc1	CCRF-CEM leukemia	f
Cc1cc2c(cc1C)NC1=C(N2)OC(c2c3ccccc3cc3ccccc23)C1=O (stereo unspecified)	CCRF-CEM leukemia	f
O=C(/C=C/c1cc2ccccc2[nH]c1=O)/C=C/c1cc2ccccc2[nH]c1=O	CCRF-CEM leukemia	f
COc1cnc2c(c1)C(=O)c1c-2n(CCCN2CCNCC2)c(=O)c2cc([N+](=O)[O-])ccc12	CCRF-CEM leukemia	t
COc1cc(C2CC(=O)Nc3c2cnn3Cc2ccco2)cc2c1OCCO2 (stereo unspecified)	CCRF-CEM leukemia	f
Cn1c2ccccc2c2c3c(c4c5ccccc5[nH]c4c21)C(=O)N(N)C3=O	CCRF-CEM leukemia	f
COC1=CC(=O)C(OC)=C(OC)C1=O	CCRF-CEM leukemia	f
Cc1ccc(-c2nc(/C=N/Nc3cc(C)nc4ccc(Br)cc34)c(C)o2)cc1	CCRF-CEM leukemia	t
COc1cccc(/C=C2/C(=O)N(Cc3ccco3)SC2=S)c1OC	CCRF-CEM leukemia	f
COc1cc(OC)c(/C=C/C(=O)c2c(OC)cc(OC)cc2OC)c(OC)c1	CCRF-CEM leukemia	t
COc1ccc(-n2cc(-c3ccccc3)c3c(SCC(=O)N/N=C/c4ccc([N+](=O)[O-])cc4)ncnc32)cc1	CCRF-CEM leukemia	f
O=C1Nc2ccccc2C12CC(c1ccc(Cl)cc1)=NN2 (stereo unspecified)	CCRF-CEM leukemia	f
COc1ccc(-c2cc(-c3cccnc3)nc3sc4c(=O)n(-c5ccc(C)cc5)cnc4c23)cc1OC	CCRF-CEM leukemia	f
COc1ccc(/C=C/C(=O)c2c(O)c(C)c(O)c3c2OC2=CC(O)=C(C(C)=O)C(=O)[C@]23C)cc1	CCRF-CEM leukemia	t
Cc1ccc2c(c1)C(=O)/C(=C/c1ccc(OCC(=O)c3ccccc3)cc1)O2	CCRF-CEM leukemia	f
CN1CCN(Cc2ccc(NC(=O)c3cncc(C#Cc4c(N)ncc5ccc(C#N)cc45)c3)cc2C(F)(F)F)CC1	CCRF-CEM leukemia	t
CNc1cc2nc3cc(NC)c(C)cc3cc2cc1C	CCRF-CEM leukemia	f
O=C1C=CC(=O)c2c1nc1n2CCCC1	CCRF-CEM leukemia	f
CCC(=O)OCc1cccc(OC)c1	CCRF-CEM leukemia	f
COc1ccc(C2CC(=O)Nc3c2c(C)nn3-c2nc3ccccc3[nH]2)cc1 (stereo unspecified)	CCRF-CEM leukemia	f
O=C1NC(=O)C(CC(=O)n2c(-c3ccccc3)nc3ccccc32)C(=O)N1	CCRF-CEM leukemia	f

---

System: SK-MEL-2 melanoma
test-method-notes: NCI-60 one-dose screen, 48 h (100 = growth as untreated, 0 = no growth, -100 = all killed)
assay-context: 10 µM unless noted
This is part of a sample that, as a whole, favours compounds with a hit. Of some 83,000 tested, about 20% had one in any assay.
Binary label based on growth with cut-off 60%: below gives yes, not below gives no.

compound	system-tested	label-value
C/C(=C(/c1ccc(O)cc1)c1ccc(OCCN(C)C)cc1)c1ccccc1	SK-MEL-2 melanoma	no
CN(C)c1ccc(/C=C\C2=[N+](C)c3ccccc3C2(C)C)cc1	SK-MEL-2 melanoma	yes
NC(CC(=O)O)C(=O)OCc1ccccc1 (centres undefined)	SK-MEL-2 melanoma	no
O=C1C=CC(=O)N1c1ccc(Cc2ccc(N3C(=O)C=CC3=O)cc2)cc1	SK-MEL-2 melanoma	no
CN1/C(=C\C=C\C2=[N+](C)c3ccccc3C2(C)C)C(C)(C)c2ccccc21	SK-MEL-2 melanoma	yes
CC1=C(C)C(=O)OC([C@](C)(O)[C@]2(O)CC[C@@]3(O)[C@@H]4C[C@H]5O[C@]56CC=CC(=O)[C@]6(C)[C@H]4CC[C@]23COC(=O)c2ccc(C)o2)C1 (some centres undefined)	SK-MEL-2 melanoma	yes
C=C1CCC2C3(C)COC(c4ccc(SC)cc4)OC3CCC2(C)C1C/C=C1/C(=O)OCC1O (centres undefined)	SK-MEL-2 melanoma	no
CC(C)CC(CC1=CCC2CC1C2(C)C)C1=C(O)C(C)(C)C(=O)C(C)(C)C1=O (centres undefined)	SK-MEL-2 melanoma	yes
CCN1CCN(Cc2ccc(NC(=O)Nc3nc4ccc(Oc5ccnc(C(=O)NC)c5)cc4s3)cc2C(F)(F)F)CC1	SK-MEL-2 melanoma	yes
